IC50 overview
Tested on: U2932
Experiment: Antiproliferative activity against human U2932 cells assessed as inhibition of cell viability measured after 72 hrs by MTT assay
Type: functional, cell-based
Conditions: U2932, 72 h
# output: number + unit

A selection of reference data follows.
molecule: Nc1ncn([C@@H]2O[C@H](CO)[C@@H](O)[C@H]2O)c(=O)n1
assayed-target: U2932
property-name: IC50
readout-value: 1.83 µM

molecule: COc1cc2c(NC3CCN(C)CC3)cc(-c3ccc(C)o3)nc2cc1OCCCN1CCCC1
assayed-target: U2932
property-name: IC50
readout-value: 2.13 µM

molecule: CCc1c(C#N)c(SC(C(N)=O)c2ccccc2)nc(N2CCC(N)CC2)c1C#N (centres undefined)
assayed-target: U2932
property-name: IC50
readout-value: 28.9 µM

Then this molecule:
Req: Please look up its IC50: CN1CCC(Nc2nc(-c3ccnc(F)c3)nc3c2ccn3CCCN2CCCC2)CC1
Resp: 0.54 µM
